Each item that follows carries a reported melting point.

Before answering, review these 4 worked examples.
| compound | melting point |
| --- | --- |
| C=CCN1C(=O)/C(=C\C(=O)OC)SC1=NNC(=O)COc1cc(=O)n(C)c2ccccc12 | 233 to 235 °C |
| Cn1c(=O)cc(OCC(=O)NNC(=S)Nc2ccccc2)c2ccccc21 | 161 to 163 °C |
| C=CCNC(=S)NNC(=O)COc1cc(=O)[nH]c2ccc(C)cc12 | 174 to 176 °C |
| Cn1c(=O)cc(OCC(=O)NNC(=S)NCc2ccccc2)c2ccccc21 | 190 to 192 °C |

Short answer for CCOC(=O)/C=C1/SC(=NNC(=O)COc2cc(=O)n(C)c3ccccc23)N(c2ccccc2)C1=O : melting point was 223 to 225 °C

Where these numbers come from: paper PMC9608620
